# assay.name: In vitro UV protection performance (SPF in vitro, UVAPF, Critical Wavelength) by the Colipa UVA in vitro Method on PMMA plates
# Format: physicochemical
# run.conditions: thin film 0.75 mg/cm^2 on PMMA plate; after UV irradiation (pre-irradiation 800 J/m^2-eff)
# UVAPF annotations

CC1(C)CC2=C(SCC(C(=O)O)N2)/C(=N/c2ccc(F)cc2)C1 (stereo not shown); 8.6
CC1(C)CC2=C(SCC(C(=O)O)N2)/C(=N/c2ccc(C(=O)NC(C)(C)C)cc2)C1 (stereo not shown); 13.5
COc1ccc(/N=C2\CC(C)(C)CC3=C2SCC(C(=O)O)N3)cc1 (stereo not shown); 8.7

Now let's try a different one.
# lookup: UVAPF of COc1ccc(/N=C2\CC(C)(C)CC3=C2SCC(C(=O)O)N3)cc1OC (stereo not shown)
4.1

###

# assay.name: UVA/UVB absorption of compound films on glass slides, with and without 20 hours ageing under UV (Xenon instrument)
# Type: physicochemical
# run.conditions: absorption A = (Tslide−Tslide+sample)/Tslide×100; ageing for 20 hours under UV
# Tested compound UVB % annotations

Examples with answers:
CC1(C)CC2=C(SCC(C(=O)O)N2)/C(=N/c2ccc(C(=O)NC(C)(C)C)cc2)C1 (stereo not shown); 97.7%
COc1ccc(/N=C2/C=C(NCC(=O)O)CC(C)(C)C2)cc1; 99.0%
COc1ccc(/N=C2/C=C(NCC(=O)O)CCC2)cc1; 98.6%

Now let's try a different one.
# lookup: Tested compound UVB % of CC1(C)CC2=C(SCC(C(=O)O)N2)/C(=N/c2ccc(F)cc2)C1 (stereo not shown)
98.2%

Values from patent US9487474B2
